Exercise: for every item that follows, state its recorded solubility.
# test.protocol: Solubility of the compound in pH 6.5 phosphate buffer containing 5% DMSO
# condition.label: phosphate buffer containing 5% DMSO
Answers are plain numbers, in µM.

Okay, here is my list. What is solubility for each of these?
1. Clc1ccc(C(Cn2ccnc2)OCc2c(Cl)cccc2Cl)c(Cl)c1 (configuration not stated)
2. CCOC(=O)C1=C(C)NC(C)=C(C(=O)OCC)C1c1ccccc1/C=C/C(=O)OC(C)(C)C

50
1

# map each compound to its solubility
1. Cc1ccc(-n2nnnc2C/C=N/Nc2ccc(Cl)cc2)cc1
2. NC(=S)N/N=C1\CCc2ccccc21
3. Nc1n[nH]c2cc(O)[nH]c(=O)c12

12.5
1000
1000

Quick one: give me solubility for each item below, same order please.
1. Sc1ncnc2nc[nH]c12 [MERCAPTOPURINE ANHYDROUS]
2. CC(=O)N1CCN(c2ccc(OCC3COC(Cn4ccnc4)(c4ccc(Cl)cc4Cl)O3)cc2)CC1 (configuration not stated)
3. Cc1cc(NS(=O)(=O)c2ccc(Cl)s2)no1
4. Oc1nc(=S)ccn1-c1nc(-c2ccccc2)sc1-c1ccccc1

1. 1000
2. 100
3. 1000
4. 50

---

# test.protocol: Solubility of the compound in pH 6.5 phosphate buffer containing 5% DMSO
# condition.label: phosphate buffer containing 5% DMSO
I'd be grateful if you could share measured log10 solubility for these entries.
Could you please treat all values as log10 of solubility in µM?

I would be grateful if you could share the reported log10 solubility for CCOC(=O)c1ccc(-n2sccc2=O)cc1 . 2.70

Look at this compound and give its reported log10 solubility. Oc1ccc(Br)cc1/C=N/c1ccc2[nH]nnc2c1 1.00

Would you mind telling me what log10 solubility value was observed for N=C(N)SCc1nc(-c2ccc(Cl)cc2)no1 ? 3.00

Please give log10 solubility for each item listed below.
1. N#CC(C#N)=C1c2cc(S(N)(=O)=O)cc([N+](=O)[O-])c2-c2c1cc(S(N)(=O)=O)cc2[N+](=O)[O-]
2. CN(C)/C=N/C(=S)Nc1cccc(F)c1
3. COCCCNC(=O)N/N=C/c1ccco1
4. COc1ccccc1NC(=S)N/N=C/c1ccco1
5. COC(=O)/C(C#N)=C(\C#N)c1ccc(Br)o1
6. Oc1c(Cl)cc(Cl)cc1/C=N/c1ccc2[nH]cnc2c1

1: 2.40; 2: 3.00; 3: 3.00; 4: 2.40; 5: 2.00; 6: 1.00

---

# study.system: Tryptophan 2,3-dioxygenase (Mus musculus)
# Sequence (P48776 whole entry): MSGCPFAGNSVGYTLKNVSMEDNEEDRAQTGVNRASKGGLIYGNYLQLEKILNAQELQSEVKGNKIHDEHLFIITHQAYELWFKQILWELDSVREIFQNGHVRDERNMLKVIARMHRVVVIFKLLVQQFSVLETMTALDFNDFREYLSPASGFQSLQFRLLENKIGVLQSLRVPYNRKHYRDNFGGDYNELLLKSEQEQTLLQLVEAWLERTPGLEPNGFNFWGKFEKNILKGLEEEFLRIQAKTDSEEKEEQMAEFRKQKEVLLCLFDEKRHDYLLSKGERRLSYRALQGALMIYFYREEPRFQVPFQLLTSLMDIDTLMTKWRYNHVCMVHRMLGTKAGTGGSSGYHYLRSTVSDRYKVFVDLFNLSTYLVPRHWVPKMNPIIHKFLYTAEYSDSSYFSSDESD
# test.protocol: Inhibition of mouse TDO expressed in mouse P815B cells using L-tryptophan substrate incubated for 24 hrs by HPLC based cellular assay
# Format: cell-based
# condition.label: read-out: IC50
value.kind: IC50
Returns: string containing the numeric result and its unit.

Looking for the measured IC50 of Cc1ccc(-n2nnnc2C/C=N/Nc2ccc(Cl)cc2)cc1 , can you help? 4.2 µM

---

# study.system: Indoleamine 2,3-dioxygenase 1 (Homo sapiens)
# Sequence (P14902 whole entry): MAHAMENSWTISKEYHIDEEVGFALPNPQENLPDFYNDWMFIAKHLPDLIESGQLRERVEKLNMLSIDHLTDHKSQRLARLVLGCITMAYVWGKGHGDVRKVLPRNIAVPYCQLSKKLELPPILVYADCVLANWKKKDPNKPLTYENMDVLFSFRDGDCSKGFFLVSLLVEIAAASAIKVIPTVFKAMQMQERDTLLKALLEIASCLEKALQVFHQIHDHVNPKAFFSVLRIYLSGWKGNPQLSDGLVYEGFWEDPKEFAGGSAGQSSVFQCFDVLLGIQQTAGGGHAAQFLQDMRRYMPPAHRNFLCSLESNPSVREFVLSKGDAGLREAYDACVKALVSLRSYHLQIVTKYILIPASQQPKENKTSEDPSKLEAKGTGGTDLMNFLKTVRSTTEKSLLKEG
# test.protocol: Inhibition of IDO1 (unknown origin) using L-tryptophan substrate incubated for 60 mins in presence of 0.01% Triton-X by HPLC
# condition.label: read-out: IC50
value.kind: IC50 (µM)
Numbers only, in µM.

For CCOC(=O)c1ccc(-n2sccc2=O)cc1 , what is its reported IC50? 11

I have 8 compounds here; please give me IC50 for each one.
1. Clc1ccc(Cn2ccnc2)c(Cl)c1
2. NNC(=O)c1nn(-c2ccccc2)c(=O)c2c(N)scc12
3. O=c1ccsn1-c1cccc(Cl)c1F
4. CC(=O)N1CCN(c2ccc(OCC3COC(Cn4ccnc4)(c4ccc(Cl)cc4Cl)O3)cc2)CC1 (stereo unspecified) [KETOCONAZOLE]
5. N#CC(C(=O)Nc1cccc(C(F)(F)F)c1)C(=S)Nc1ccccc1Cl (stereo unspecified)
6. N#CC(C#N)=C1c2cc(S(N)(=O)=O)cc([N+](=O)[O-])c2-c2c1cc(S(N)(=O)=O)cc2[N+](=O)[O-]
7. Cc1ccc(-n2nnnc2C/C=N/Nc2ccc(Cl)cc2)cc1
8. Clc1ccc(COC(Cn2ccnc2)c2ccc(Cl)cc2Cl)c(Cl)c1 (stereo unspecified) [MICONAZOLE]

1. 310
2. 15
3. 4.8
4. 25
5. 6.3
6. 0.96
7. 53
8. 3.8

---

# study.system: UniProtKB P14902
# test.protocol: Inhibition of IDO1 (unknown origin) using L-tryptophan substrate incubated for 60 mins in presence of 5 mM GSH by HPLC
pIC50: −log10 of the molar value.
pIC50 of 4 or higher: met. Under 4: not met.

Some solved entries appear below for comparison.
Decide: is the reported value of pIC50 for COC(=O)/C(C#N)=C(\C#N)c1ccc(Br)o1 equal to or greater than 4? met

Could you tell me if the measured pIC50 of N#CC(C#N)=C1c2cc(S(N)(=O)=O)cc([N+](=O)[O-])c2-c2c1cc(S(N)(=O)=O)cc2[N+](=O)[O-] reaches 4 or more? met

Check the entry O=c1ccsn1-c1cccc(Cl)c1F : does pIC50 equal or exceed 4? not met

Does pIC50 meet or surpass 4 for Cc1ccc(-n2nnnc2C/C=N/Nc2ccc(Cl)cc2)cc1 ? met

Moving on to another compound below.
Is the recorded value of pIC50 equal to or greater than 4 for this compound? N#CC(C(=O)Nc1cccc(C(F)(F)F)c1)C(=S)Nc1ccccc1Cl (configuration not stated) met

---

# study.system: Indoleamine 2,3-dioxygenase 1 (Mus musculus, UniProt P28776)
# Sequence (P28776 whole entry): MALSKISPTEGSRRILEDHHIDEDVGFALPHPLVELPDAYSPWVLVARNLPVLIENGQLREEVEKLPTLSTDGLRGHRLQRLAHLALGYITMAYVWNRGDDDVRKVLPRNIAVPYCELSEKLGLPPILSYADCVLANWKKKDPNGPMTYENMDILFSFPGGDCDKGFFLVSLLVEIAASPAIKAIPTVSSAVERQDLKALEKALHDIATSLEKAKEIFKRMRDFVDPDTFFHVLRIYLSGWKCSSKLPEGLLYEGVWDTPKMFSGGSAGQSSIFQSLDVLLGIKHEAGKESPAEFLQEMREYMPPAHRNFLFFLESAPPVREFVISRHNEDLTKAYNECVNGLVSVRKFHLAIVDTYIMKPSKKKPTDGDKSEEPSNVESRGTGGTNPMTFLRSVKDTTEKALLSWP
# test.protocol: Inhibition of mouse IDO1 expressed in mouse P815B cells using L-tryptophan substrate incubated for 18 hrs by HPLC based cellular assay
# Type: cell-based
# condition.label: p815b
value.kind: IC50

Solved cases below.
State the recorded IC50 for this entry: CC(=O)N1CCN(c2ccc(OCC3COC(Cn4ccnc4)(c4ccc(Cl)cc4Cl)O3)cc2)CC1 (stereo not given) Not Active

Quick check: IC50 of N#CC(C#N)=C1c2cc(S(N)(=O)=O)cc([N+](=O)[O-])c2-c2c1cc(S(N)(=O)=O)cc2[N+](=O)[O-] ? Not Active

Entry c1ccc(-c2ccc(C(c3ccccc3)n3ccnc3)cc2)cc1 (stereo not given) : reported IC50 = ? Not Active

# query: IC50 of entry Clc1ccc(CSC(Cn2ccnc2)c2ccc(Cl)cc2Cl)cc1 (stereo not given) Not Active

Which IC50 is listed for N#CC(C(=O)Nc1cccc(C(F)(F)F)c1)C(=S)Nc1ccccc1Cl (stereo not given) ? Not Active

# input compound: COC(=O)/C(C#N)=C(\C#N)c1ccc(Br)o1 ; wanted: its IC50 Not Active

If you can, please state the reported IC50 value of O=c1ccsn1-c1cccc(Cl)c1F . Not Active

Could you tell me which IC50 is on file for Clc1ccc(C(Cn2ccnc2)OCc2c(Cl)cccc2Cl)c(Cl)c1 (stereo not given) ? Not Active

Please report IC50 for every entry that follows.
1. Clc1ccc(COC(Cn2ccnc2)c2ccc(Cl)cc2Cl)cc1 (stereo not given)
2. NNC(=O)c1nn(-c2ccccc2)c(=O)c2c(N)scc12

1. Not Active
2. Not Active

---

# study.system: UniProt:P28776
# test.protocol: Inhibition of mouse IDO1 expressed in mouse P815B cells using L-tryptophan substrate incubated for 18 hrs by HPLC based cellular assay
# Assay type: cell-based
# condition.label: read-out: IC50
Would you kindly list pIC50 for each of these compounds?
Give bare numbers, as −log10 of the molar value.

Go through the items and report each one's pIC50.
1. Cc1ccc(-n2nnnc2C/C=N/Nc2ccc(Cl)cc2)cc1
2. N=C(N)SCc1nc(-c2ccc(Cl)cc2)no1

6.47
5.68

---

# test.protocol: Solubility of the compound in pH 6.5 phosphate buffer containing 5% DMSO
# condition.label: phosphate buffer containing 5% DMSO
Can you tell me log10(solubility) for the items I'm about to list?
Short version: log10 scale, solubility, µM.

Here is how some molecules turned out for log10(solubility).
Reported log10(solubility), molecule CC(C)(N)Cc1ccccc1 : ____ 3.00

Query (molecule): CNC(=S)N/N=C/c1ccc(OC)c(OC)c1 ; field requested: log10(solubility) 3.00

Fill in the blank: the reported log10(solubility) of Clc1ccc(C(Cn2ccnc2)OCc2csc3c(Cl)cccc23)c(Cl)c1 (stereo not drawn) is ____. 1.00

I'd like to know its log10(solubility). The molecule in question is COc1cccc(N(C)C(=S)Oc2ccc3c(c2)CCCC3)n1 [LIRANAFTATE] 1.10

Entry Cn1cc(Cl)c(/C=C(\C#N)S(=O)(=O)C(C)(C)C)n1 : reported log10(solubility) = ? 3.00

Which log10(solubility) value is on record for Cc1cc(C)n2[nH]c(=S)nc2n1 ? 3.00

Hey, quick one: what's log10(solubility) for each of these?
1. N#C/C(=C\c1c[nH]cn1)S(=O)(=O)c1ccc(Cl)cc1
2. O=C(c1ccc(OCCN2CCCCC2)cc1)c1c(-c2ccc(O)cc2)sc2cc(O)ccc12
3. Clc1ccc(COC(Cn2ccnc2)c2ccc(Cl)cc2Cl)cc1 (stereo not drawn)
4. COC(=O)/C(C#N)=C1/C(=O)Nc2ccccc21
5. N#C/C(=C\c1c[nH]cn1)S(=O)(=O)c1cccs1
6. Clc1ccc(CO/N=C(\Cn2ccnc2)c2ccc(Cl)cc2Cl)c(Cl)c1
7. Cc1nn(-c2ccccc2)nc1CNC(=O)c1ccc2nsnc2c1
8. CC(C)(C)S(=O)(=O)/C(C#N)=C/c1ccsc1

1: 3.00; 2: 1.70; 3: 1.00; 4: 2.00; 5: 3.00; 6: 1.30; 7: 1.70; 8: 3.00

Provide log10(solubility) values for the following items, in order.
1. NC(=S)N/N=C/c1c(F)cccc1Cl
2. CC1=C(C#N)C(c2ccc(-c3ccc(Cl)cc3[N+](=O)[O-])o2)C(C#N)=C(C)N1
3. NC(=O)N/N=C/c1ccc(-c2ccc(C(F)(F)F)cc2[N+](=O)[O-])o1
4. COc1ccc(-c2n[nH]cc2/C=C(/C#N)S(C)(=O)=O)cc1
5. Cc1cc(N/C=C(\C#N)S(=O)(=O)c2ccccc2Cl)nc(C)n1
6. Clc1ccc(Sc2nc(-c3cccs3)ns2)cc1
7. C=CCOC(Cn1ccnc1)c1ccc(Cl)cc1Cl (stereo not drawn)
8. COCCCOc1ccnc(C[S+]([O-])c2nc3ccccc3[nH]2)c1C (stereo not drawn)

1: 2.40; 2: 1.70; 3: 1.70; 4: 2.00; 5: 2.40; 6: 2.00; 7: 1.00; 8: 3.00
